# Tgt: Prostaglandin G/H synthase 1 (Homo sapiens, UniProt P23219)
# Sequence (P23219 whole entry): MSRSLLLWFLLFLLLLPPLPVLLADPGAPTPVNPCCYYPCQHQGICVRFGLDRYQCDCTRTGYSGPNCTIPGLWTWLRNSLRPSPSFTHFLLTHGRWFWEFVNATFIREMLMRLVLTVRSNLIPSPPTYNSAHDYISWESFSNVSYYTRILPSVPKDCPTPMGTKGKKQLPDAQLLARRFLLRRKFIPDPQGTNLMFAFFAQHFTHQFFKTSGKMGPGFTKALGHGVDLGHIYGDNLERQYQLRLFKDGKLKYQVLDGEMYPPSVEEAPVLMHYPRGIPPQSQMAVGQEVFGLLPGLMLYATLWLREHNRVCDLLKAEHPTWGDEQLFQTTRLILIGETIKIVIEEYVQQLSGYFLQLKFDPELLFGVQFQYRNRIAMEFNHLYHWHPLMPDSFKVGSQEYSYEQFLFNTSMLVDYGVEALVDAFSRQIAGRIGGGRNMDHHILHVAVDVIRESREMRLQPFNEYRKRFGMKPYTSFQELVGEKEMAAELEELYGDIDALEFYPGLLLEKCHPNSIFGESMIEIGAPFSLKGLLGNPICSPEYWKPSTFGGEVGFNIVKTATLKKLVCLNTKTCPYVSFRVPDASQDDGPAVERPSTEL
pIC50: −log10 of the molar value.

Compound: Cc1c(C)c2c(c(C)c1O)CCC(C)(C(=O)O)O2 (stereo unspecified)
pIC50: 6.89
